molecular target: Kir2.1 (Homo sapiens); construct: gene KCNJ2; stably expressed in CHO cells; IK1 current; homotetramer; assay: automated patch clamp (QPatch); assay type: cell-based; settings: read-out: NaV1.5 peak
Sequence (P63252 whole entry): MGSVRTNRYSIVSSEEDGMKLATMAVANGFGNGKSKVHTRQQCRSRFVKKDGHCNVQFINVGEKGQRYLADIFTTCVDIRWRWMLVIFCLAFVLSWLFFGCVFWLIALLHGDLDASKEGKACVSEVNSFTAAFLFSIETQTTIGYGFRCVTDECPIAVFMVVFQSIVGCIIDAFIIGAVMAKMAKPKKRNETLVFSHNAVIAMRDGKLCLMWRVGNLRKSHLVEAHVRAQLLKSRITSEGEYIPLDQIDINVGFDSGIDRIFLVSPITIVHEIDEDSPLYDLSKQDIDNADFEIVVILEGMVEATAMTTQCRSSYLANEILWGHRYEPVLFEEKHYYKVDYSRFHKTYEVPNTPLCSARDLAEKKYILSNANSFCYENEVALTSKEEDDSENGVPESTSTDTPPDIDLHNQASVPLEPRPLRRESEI
Property measured: IC50 (µM)
Reply numerically in µM, unit not repeated.

The recorded IC50 for entry CCN(CCO)CCCC(C)Nc1ccnc2cc(Cl)ccc12 (stereo not shown) [hydroxychloroquine] equals 44.2

* * *

IC50 values for the molecules below.
assay: automated patch clamp (SyncroPatch […]PE); format: cell-based, Homo sapiens; conditions: read-out: CaV1.2 ramp

> print(dat)
                                   molecule  measured
1  CCN(CC)CCCC(C)Nc1ccnc2cc(Cl)ccc12 (centres unmarked) [chloroquine]  > 300 µM

# evaluate next
The recorded IC50 for entry CCN(CCO)CCCC(C)Nc1ccnc2cc(Cl)ccc12 (centres unmarked) [hydroxychloroquine] equals > 300 µM

* * *

assay: automated patch clamp (SyncroPatch […]PE); assay type: cell-based, Homo sapiens; conditions: read-out: CaV1.2 ramp
pIC50: −log10 of the molar value.
Property measured: pIC50

The recorded pIC50 for entry CCN(CCO)CCCC(C)Nc1ccnc2cc(Cl)ccc12 (stereo not shown) [hydroxychloroquine] equals < 3.52

* * *

pIC50 values for the molecules below.
molecular target: hERG (Homo sapiens, UniProt Q12809); construct: stably expressed in CHO cells; IKr current; homotetramer; experiment: automated patch clamp (SyncroPatch […]PE)
Sequence (Q12809 whole entry): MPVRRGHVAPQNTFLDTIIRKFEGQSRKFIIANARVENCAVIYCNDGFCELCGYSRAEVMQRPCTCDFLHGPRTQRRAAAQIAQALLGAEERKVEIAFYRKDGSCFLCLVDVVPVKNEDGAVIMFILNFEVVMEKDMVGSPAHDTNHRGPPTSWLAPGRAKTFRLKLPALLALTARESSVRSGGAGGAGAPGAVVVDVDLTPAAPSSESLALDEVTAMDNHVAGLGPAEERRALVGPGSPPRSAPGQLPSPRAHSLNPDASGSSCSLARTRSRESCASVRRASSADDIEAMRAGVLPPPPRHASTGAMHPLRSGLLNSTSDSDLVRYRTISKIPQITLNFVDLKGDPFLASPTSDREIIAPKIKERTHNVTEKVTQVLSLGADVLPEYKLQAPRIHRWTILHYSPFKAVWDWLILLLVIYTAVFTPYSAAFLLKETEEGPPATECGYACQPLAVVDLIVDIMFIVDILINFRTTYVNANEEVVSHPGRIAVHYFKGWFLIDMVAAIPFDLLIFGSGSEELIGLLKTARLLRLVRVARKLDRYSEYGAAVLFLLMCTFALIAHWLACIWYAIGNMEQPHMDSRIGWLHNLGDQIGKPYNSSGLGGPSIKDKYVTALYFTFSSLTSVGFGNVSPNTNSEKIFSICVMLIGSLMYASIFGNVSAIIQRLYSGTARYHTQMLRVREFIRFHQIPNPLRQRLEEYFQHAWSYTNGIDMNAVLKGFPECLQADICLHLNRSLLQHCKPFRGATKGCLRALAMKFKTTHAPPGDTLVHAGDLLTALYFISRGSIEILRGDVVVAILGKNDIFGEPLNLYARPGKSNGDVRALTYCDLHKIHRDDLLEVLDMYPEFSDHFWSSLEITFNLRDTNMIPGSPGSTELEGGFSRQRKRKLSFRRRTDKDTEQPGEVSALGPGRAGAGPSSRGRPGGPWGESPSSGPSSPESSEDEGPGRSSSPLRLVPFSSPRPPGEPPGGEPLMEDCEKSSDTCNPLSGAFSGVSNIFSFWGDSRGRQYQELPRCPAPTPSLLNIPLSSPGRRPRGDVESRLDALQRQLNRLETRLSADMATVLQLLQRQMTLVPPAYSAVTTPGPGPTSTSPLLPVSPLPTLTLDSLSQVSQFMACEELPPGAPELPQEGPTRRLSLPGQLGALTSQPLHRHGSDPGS
Worth noting: pIC50 values are minus log10 of concentrations stated in mol/L.

The recorded pIC50 for entry CCN(CCO)CCCC(C)Nc1ccnc2cc(Cl)ccc12 (centres unmarked) [hydroxychloroquine] equals 5.58

The recorded pIC50 for entry CC[C@H]1OC(=O)[C@H](C)[C@@H](O[C@H]2C[C@@](C)(OC)[C@@H](O)[C@H](C)O2)[C@H](C)[C@@H](O[C@@H]2O[C@H](C)C[C@H](N(C)C)[C@H]2O)[C@](C)(O)C[C@@H](C)CN(C)[C@H](C)[C@@H](O)[C@]1(C)O equals 3.36

* * *

target: Kir2.1 (Homo sapiens); construct: gene KCNJ2; stably expressed in CHO cells; IK1 current; homotetramer; assay: automated patch clamp (QPatch); format: cell-based; details: read-out: Kir2.1
Property measured: IC50
Respond with a number, then the unit of measure.

The recorded IC50 for entry CCN(CC)CCCC(C)Nc1ccnc2cc(Cl)ccc12 (stereo not shown) [chloroquine] equals 4.98 µM

* * *

pIC50 values for the compounds below.
target: NaV1.5 (Homo sapiens, UniProt Q14524); construct: stably expressed in CHO cells; no beta subunit mentioned; assay: automated patch clamp (SyncroPatch […]PE); settings: read-out: NaV1.5 peak
Sequence (Q14524 whole entry): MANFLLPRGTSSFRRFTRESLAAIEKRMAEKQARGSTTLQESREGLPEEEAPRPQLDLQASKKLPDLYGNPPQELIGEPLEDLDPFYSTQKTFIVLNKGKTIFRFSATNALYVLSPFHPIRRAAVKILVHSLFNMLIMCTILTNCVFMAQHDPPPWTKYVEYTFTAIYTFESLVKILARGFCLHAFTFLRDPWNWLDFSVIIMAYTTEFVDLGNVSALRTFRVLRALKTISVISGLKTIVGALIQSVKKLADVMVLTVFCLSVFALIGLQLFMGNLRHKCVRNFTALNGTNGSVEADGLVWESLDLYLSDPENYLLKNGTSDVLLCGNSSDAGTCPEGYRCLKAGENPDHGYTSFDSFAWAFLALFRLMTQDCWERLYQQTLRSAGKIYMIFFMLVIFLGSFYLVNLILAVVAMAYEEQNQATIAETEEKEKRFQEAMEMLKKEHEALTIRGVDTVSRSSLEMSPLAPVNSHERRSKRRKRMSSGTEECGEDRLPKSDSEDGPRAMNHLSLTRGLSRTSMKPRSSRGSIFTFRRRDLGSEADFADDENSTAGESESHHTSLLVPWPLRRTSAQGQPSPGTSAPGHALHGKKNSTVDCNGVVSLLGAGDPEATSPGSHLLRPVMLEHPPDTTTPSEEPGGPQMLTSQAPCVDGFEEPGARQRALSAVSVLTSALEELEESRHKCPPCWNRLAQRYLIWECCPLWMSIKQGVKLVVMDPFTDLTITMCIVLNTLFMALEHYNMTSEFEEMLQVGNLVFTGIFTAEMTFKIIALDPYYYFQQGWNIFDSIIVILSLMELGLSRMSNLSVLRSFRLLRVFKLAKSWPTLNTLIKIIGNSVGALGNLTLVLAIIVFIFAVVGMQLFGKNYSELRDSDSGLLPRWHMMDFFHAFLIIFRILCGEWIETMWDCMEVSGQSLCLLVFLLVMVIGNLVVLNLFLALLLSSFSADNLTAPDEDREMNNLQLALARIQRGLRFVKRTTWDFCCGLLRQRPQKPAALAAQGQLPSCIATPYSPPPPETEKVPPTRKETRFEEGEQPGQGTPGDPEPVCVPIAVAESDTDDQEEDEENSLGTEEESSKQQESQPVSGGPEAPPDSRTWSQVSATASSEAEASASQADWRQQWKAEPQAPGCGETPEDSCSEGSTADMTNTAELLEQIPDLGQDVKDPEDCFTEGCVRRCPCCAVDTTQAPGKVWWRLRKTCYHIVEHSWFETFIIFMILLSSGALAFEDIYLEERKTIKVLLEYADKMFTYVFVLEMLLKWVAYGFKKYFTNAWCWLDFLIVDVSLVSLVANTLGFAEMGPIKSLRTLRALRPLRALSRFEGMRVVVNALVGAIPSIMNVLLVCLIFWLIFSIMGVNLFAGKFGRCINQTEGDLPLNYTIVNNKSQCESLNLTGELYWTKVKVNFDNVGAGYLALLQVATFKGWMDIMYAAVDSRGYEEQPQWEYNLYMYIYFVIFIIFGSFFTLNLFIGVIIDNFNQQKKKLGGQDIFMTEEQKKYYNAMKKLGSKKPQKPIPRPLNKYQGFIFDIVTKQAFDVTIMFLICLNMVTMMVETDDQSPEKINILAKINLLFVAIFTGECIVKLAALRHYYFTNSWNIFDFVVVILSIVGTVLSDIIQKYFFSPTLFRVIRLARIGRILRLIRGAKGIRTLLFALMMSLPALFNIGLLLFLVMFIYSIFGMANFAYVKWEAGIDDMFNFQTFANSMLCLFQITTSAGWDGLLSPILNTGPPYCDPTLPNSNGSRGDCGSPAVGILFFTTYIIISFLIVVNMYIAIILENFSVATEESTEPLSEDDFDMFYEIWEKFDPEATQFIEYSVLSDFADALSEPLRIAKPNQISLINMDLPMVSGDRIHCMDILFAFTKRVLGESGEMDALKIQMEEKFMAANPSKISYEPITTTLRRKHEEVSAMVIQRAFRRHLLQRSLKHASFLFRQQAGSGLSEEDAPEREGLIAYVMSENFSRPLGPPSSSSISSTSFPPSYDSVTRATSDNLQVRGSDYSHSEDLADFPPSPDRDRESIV
Worth noting: pIC50 values are minus log10 of concentrations stated in mol/L.

Compound	pIC50
CCN(CC)CCCC(C)Nc1ccnc2cc(Cl)ccc12 (stereo not drawn) [chloroquine]	4.86
CC[C@H]1OC(=O)[C@H](C)[C@@H](O[C@H]2C[C@@](C)(OC)[C@@H](O)[C@H](C)O2)[C@H](C)[C@@H](O[C@@H]2O[C@H](C)C[C@H](N(C)C)[C@H]2O)[C@](C)(O)C[C@@H](C)CN(C)[C@H](C)[C@@H](O)[C@]1(C)O [azithromycin]	3.21

# evaluate next
Value sought: pIC50, system NaV1.5 (Homo sapiens, UniProt Q14524), item CCN(CCO)CCCC(C)Nc1ccnc2cc(Cl)ccc12 (stereo not drawn) [hydroxychloroquine] . Result: 4.77
